Where do the numbers come from? From patent US20100056439A1.

target: EGFR expressed on A431 cells (human, UniProt P00533 25-1210); assay: cell-based or functional assay
assay.endpoint: Kinase Assay IC50 (nM), average

Guide cases for Kinase Assay IC50 (nM), average, answers given:
# query: Kinase Assay IC50 (nM), average of entry DOM16-39-100 (other) VL: DIQMTQSPSSLSASVGDRVTITCRASQWIGILVDWYQQKPGEAPKLLIYYASFLQSGVPSRFSGSGFGTDFTLTISSLHPEDFATYYCQQANPAPLTFGQGTKVEIKR 12.7

Reported Kinase Assay IC50 (nM), average, binder DOM16-39 (other) VL: DIQMTQSPSSLSASVGDRVTITCRASQWIGILLDWYQQKPGEAPKLLIYYASFLQSGVPSRFSGSGSGTDFTLTISSLQPEDFATYYCQQANPAPLTFGQGTKVEIKR : ____ 56.1

I = DOM16-39-115 (other) VL: DIQMTQSPSSLSASVGDRVTITCRASQWIGILLDWYQQKPGEAPKLLIYYASFLQSGVPSRFSGSGYGTDFTLTISSLQPEDFATYYCQQANPAPLTFGQGTKVEIKR
II = DOM16-39-109 (other) VL: DIQMTQSPTSLSASVGDRVTITCRASQWIGNLLDWYQQKPGEAPKLLIYYASFLQSGVPSRFSGGGFGTDFTLTISSLQPEDFATYYCQQANPAPLTFGQGTKVEIKR
Hey, which is lower on measured Kinase Assay IC50 (nM), average, I or II ? Lab note: record the label of whichever item you select. II
(II: 8.69 nM, I: 42.4 nM)
